// data source = patent US20200330447A1

- Test system: DU145 prostate cancer cells
- procedure-text: High content imaging-based screen (Cellomics) for lysosome migration inhibitors
- Type: cell-based
- reported-conditions: pH 6.4 media, 2 micrograms per ml, 16 hours
measured-quantity: hit in screen for lysosome migration inhibitors (mean ring spot count)

compound: CCC1=C[C@@H]2CN(C1)Cc1c([nH]c3ccccc13)[C@@](C(=O)OC)(c1cc3c(cc1OC)N(C)[C@H]1[C@@](O)(C(=O)OC)[C@H](OC(C)=O)[C@]4(CC)C=CCN5CC[C@]31[C@@H]54)C2
reported: hits
//
compound: OC(c1cc(C(F)(F)F)nc2c(C(F)(F)F)cccc12)C1CCCCN1 (centres unmarked)
reported: hit
//
compound: O=C(c1ccc(OCCN2CCCCC2)cc1)c1c(-c2ccc(O)cc2)sc2cc(O)ccc12
reported: hits
//
compound: CC(=O)O[C@H]1C(=O)[C@@]2(C)[C@H]([C@H](OC(=O)c3ccccc3)[C@]3(O)C[C@H](OC(=O)[C@H](O)[C@@H](NC(=O)c4ccccc4)c4ccccc4)C(C)=C1C3(C)C)[C@]1(OC(C)=O)CO[C@@H]1C[C@@H]2O
reported: hits
//
compound: CCCSc1ccc2nc(NC(=O)OC)[nH]c2c1
reported: hits
